Source of measurements: PubChem BioAssay AID1963979

- System: 361931-004-R-J1-PDC multicell spheroid viability
- assay-summary: Anticancer human tumor 361931-004-R-J1-PDC patient-derived colon adenocarcinoma cell line growth inhibition [PI3K]
- run-parameters: second compound 10 µM; first compound 0.0316 µM; stronger effect = lower value
metric: viability, T/C (%)
Provide only the numeric value, understood in %.

What value of measured viability, T/C is listed for Cn1ncnc1[C@H]1c2n[nH]c(=O)c3cc(F)cc(c23)N[C@@H]1c1ccc(F)cc1 + Cc1nc(NC(=O)N2CCCC2C(N)=O)sc1-c1ccnc(C(C)(C)C(F)(F)F)c1 ?
47.9

----------
- Test system: 361931-004-R-J1-PDC multicell spheroid viability
- assay-summary: Anticancer human tumor 361931-004-R-J1-PDC cell line growth inhibition [PI3K];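 further: spheroids exposed to agents for seven days before readout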
- run-parameters: second compound 0.0316 µM; first compound 0.316 µM; stronger effect = lower value
viability, T/C listing for selected molecules.
Provide only the numeric value, understood in %.

Past entries and their recorded results:
CC(C)NCC(C(=O)N1CCN(c2ncnc3c2C(C)CC3O)CC1)c1ccc(Cl)cc1 (stereo not given) + Cc1nc(NC(=O)N2CCCC2C(N)=O)sc1-c1ccnc(C(C)(C)C(F)(F)F)c1 : 85.4
CC1(C)CCC(Nc2ncc(C(F)(F)F)c(-c3c[nH]c4c(P(C)(C)=O)c(C#N)ccc34)n2)CN1 (stereo not given) + Cc1nc(NC(=O)N2CCCC2C(N)=O)sc1-c1ccnc(C(C)(C)C(F)(F)F)c1 : 79.9
C#Cc1c(F)ccc2cc(O)cc(-c3ncc4c(N5CC6CCC(C5)N6)nc(OCC56CCCN5CC(F)C6)nc4c3F)c12 (stereo not given) + CC(Nc1ncnc2nc[nH]c12)c1cc2cccc(Cl)c2c(=O)n1-c1ccccc1 : 105
Cn1ncc(Cl)c1-c1cc(C(=O)NC(CN)Cc2cccc(F)c2)sc1Cl (stereo not given) + CC(Nc1ccc2c(c1)OCCn1cc(N3C(=O)OCC3C(F)F)nc1-2)C(N)=O : 75.2

What value of measured viability, T/C is listed for CNC(=O)c1ccc(N2C(=S)N(c3ccc(C#N)c(C(F)(F)F)c3)C(=O)C2(C)C)cc1F + Cc1nc(NC(=O)N2CCCC2C(N)=O)sc1-c1ccnc(C(C)(C)C(F)(F)F)c1 ?
91

----------
- Test system: 361931-004-R-J1-PDC multicell spheroid viability
- assay-summary: Anticancer human tumor 361931-004-R-J1-PDC cell line growth inhibition [PI3K];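 further: spheroids exposed to agents for seven days before readout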
- run-parameters: curve of first compound; second compound 1 µM
pIC50: −log10 of the molar value.
Label criterion met when pIC50 >= 6; otherwise criterion not met.

See these solved cases before continuing.
CC1(C)CCC(Nc2ncc(C(F)(F)F)c(-c3c[nH]c4c(P(C)(C)=O)c(C#N)ccc34)n2)CN1 (stereo unspecified) + CC(Nc1ccc2c(c1)OCCn1cc(N3C(=O)OCC3C(F)F)nc1-2)C(N)=O : criterion not met
C#Cc1c(F)ccc2cc(O)cc(-c3ncc4c(N5CC6CCC(C5)N6)nc(OCC56CCCN5CC(F)C6)nc4c3F)c12 (stereo unspecified) + CC(Nc1ccc2c(c1)OCCn1cc(N3C(=O)OCC3C(F)F)nc1-2)C(N)=O : criterion not met
C[C@@H](NC(=O)c1ncnc(N)c1Cl)c1ncc(C(=O)Nc2cc(C(F)(F)F)c(Cl)cn2)s1 + COc1c(OCCCN2CCOCC2)ccc2c3n(c(=NC(=O)c4cnc(N)nc4)nc12)CCN3 : criterion met
CC(Cn1ccc(-c2ccc(C#N)c(Cl)c2)n1)NC(=O)c1cc(C(C)O)[nH]n1 (stereo unspecified) + CC(Nc1ncnc2nc[nH]c12)c1cc2cccc(Cl)c2c(=O)n1-c1ccccc1 : criterion not met
C#Cc1c(F)ccc2cc(O)cc(-c3ncc4c(N5CC6CCC(C5)N6)nc(OCC56CCCN5CC(F)C6)nc4c3F)c12 (stereo unspecified) + COc1c(OCCCN2CCOCC2)ccc2c3n(c(=NC(=O)c4cnc(N)nc4)nc12)CCN3 : criterion met
CC(C)n1nc(-c2ccc3oc(N)nc3c2)c2c(N)ncnc21 + Cc1nc(NC(=O)N2CCCC2C(N)=O)sc1-c1ccnc(C(C)(C)C(F)(F)F)c1 : criterion met
Cn1cnc2c(F)c(Nc3ccc(Br)cc3Cl)c(C(=O)NOCCO)cc21 + COc1c(OCCCN2CCOCC2)ccc2c3n(c(=NC(=O)c4cnc(N)nc4)nc12)CCN3 : criterion met
Cn1ncnc1[C@H]1c2n[nH]c(=O)c3cc(F)cc(c23)N[C@@H]1c1ccc(F)cc1 + COc1c(OCCCN2CCOCC2)ccc2c3n(c(=NC(=O)c4cnc(N)nc4)nc12)CCN3 : criterion met
CC(C)NCC(C(=O)N1CCN(c2ncnc3c2C(C)CC3O)CC1)c1ccc(Cl)cc1 (stereo unspecified) + COc1c(OCCCN2CCOCC2)ccc2c3n(c(=NC(=O)c4cnc(N)nc4)nc12)CCN3 : criterion met
CC(C)n1nc(-c2ccc3oc(N)nc3c2)c2c(N)ncnc21 + COc1c(OCCCN2CCOCC2)ccc2c3n(c(=NC(=O)c4cnc(N)nc4)nc12)CCN3 : criterion met

Reported pIC50 at or above 6? C=CC(=O)N1CCN(c2nc(=O)n(-c3c(C)ccnc3C(C)C)c3nc(-c4c(O)cccc4F)c(F)cc23)C(C)C1 (stereo unspecified) + COc1c(OCCCN2CCOCC2)ccc2c3n(c(=NC(=O)c4cnc(N)nc4)nc12)CCN3
criterion met

Reported pIC50 at or above 6? CC1(C)CCC(CN2CCN(c3ccc(C(=O)NS(=O)(=O)c4ccc(NCC5CCOCC5)c([N+](=O)[O-])c4)c(Oc4cnc5[nH]ccc5c4)c3)CC2)=C(c2ccc(Cl)cc2)C1 + CC(Nc1ncnc2nc[nH]c12)c1cc2cccc(Cl)c2c(=O)n1-c1ccccc1
criterion not met

Reported pIC50 at or above 6? CCCS(=O)(=O)Nc1ccc(F)c(C(=O)c2c[nH]c3ncc(-c4ccc(Cl)cc4)cc23)c1F + Cc1nc(NC(=O)N2CCCC2C(N)=O)sc1-c1ccnc(C(C)(C)C(F)(F)F)c1
criterion not met

Reported pIC50 at or above 6? CC(C)n1nc(-c2ccc3oc(N)nc3c2)c2c(N)ncnc21 + CC(Nc1ccc2c(c1)OCCn1cc(N3C(=O)OCC3C(F)F)nc1-2)C(N)=O
criterion met

Reported pIC50 at or above 6? Cn1nccc1Nc1nccc(-c2ccn(C(CO)c3ccc(Cl)c(F)c3)c(=O)c2)n1 (stereo unspecified) + Cc1nc(NC(=O)N2CCCC2C(N)=O)sc1-c1ccnc(C(C)(C)C(F)(F)F)c1
criterion not met

Reported pIC50 at or above 6? CC1(C)CCC(CN2CCN(c3ccc(C(=O)NS(=O)(=O)c4ccc(NCC5CCOCC5)c([N+](=O)[O-])c4)c(Oc4cnc5[nH]ccc5c4)c3)CC2)=C(c2ccc(Cl)cc2)C1 + CC(Nc1ccc2c(c1)OCCn1cc(N3C(=O)OCC3C(F)F)nc1-2)C(N)=O
criterion not met

Reported pIC50 at or above 6? CCN1CCN(Cc2ccc(Nc3ncc(F)c(-c4cc(F)c5nc(C)n(C(C)C)c5c4)n3)nc2)CC1 + COc1c(OCCCN2CCOCC2)ccc2c3n(c(=NC(=O)c4cnc(N)nc4)nc12)CCN3
criterion met

Reported pIC50 at or above 6? CC(Cn1ccc(-c2ccc(C#N)c(Cl)c2)n1)NC(=O)c1cc(C(C)O)[nH]n1 (stereo unspecified) + CC(Nc1ccc2c(c1)OCCn1cc(N3C(=O)OCC3C(F)F)nc1-2)C(N)=O
criterion not met

Reported pIC50 at or above 6? CCCS(=O)(=O)Nc1ccc(F)c(C(=O)c2c[nH]c3ncc(-c4ccc(Cl)cc4)cc23)c1F + CC(Nc1ncnc2nc[nH]c12)c1cc2cccc(Cl)c2c(=O)n1-c1ccccc1
criterion not met
